B1: HDV Ribozyme (parent)
chain: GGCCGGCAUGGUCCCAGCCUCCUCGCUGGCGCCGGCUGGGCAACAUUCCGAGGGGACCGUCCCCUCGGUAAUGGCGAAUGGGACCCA

variants of: B1; assay: self-cleavage, relative activity (ratio to wild type); higher = more cleavage; co-transcriptional
Rule: self-cleavage of 0.4 or more gives T; anything lower gives F.

1) GGCCGGCAUGGUCCCAGCCUCCUCGCUGGCGCCGGCUGGGCAACAUUCCGAGGGGACCGUCGCAUCGGUAAUGGCGAAUGGGACCCA T
2) GGCCGGCAUGGUCCCAGCCUCCUCGCUGGCGCCGGCUGGGCAACAUUCCGAGAGGACCGUCCCCUCGGUAAUGGCGAAUGGUACCCA F
3) GGCCGGCAUGGUCCCAGCCUCCUCGCUGGCGCCGGCUGGGCGACAUUCCAAGGGGACCGUCCCCUCGGUAAUGGCGAAUGGGACCCA T
4) GGCCGGCCUGGUCCCAGCCUCCUCGCUGGCGCCGGCUGGGCAACAUUCCGAGGGGACCGUCCCCUCGGUAAUGGCGAAUGGUACCCA F
5) GGCCGGCAUGGUCCCAGCCUCCUCGCUGGCGCCGGCUGGGCAACAUUCCGAGGGGACCUCCCCCUCGGUAAUGGCGAAUGGGACCCA T

Prompt: Given GGCAGGCAUGGUCCCAGCCUCAUCGCUGGCGCCGGCUGGGCAACAUUCCGAGGGGACCGUCCCCUCGGUAAUGGCGAAUGGGACCCA , state whether its self-cleavage is at least 0.4.
Response: F

Prompt: State whether the measured self-cleavage reaches 0.4, counting equality as reaching it, for GACCGGCAUGGUCCCAGCCUCCUCGCUGGCGCCGGCUGGGCAACAUUCCGAGGGGACCGUCCUCUCGGUAAUGGCGAAUGGGACCCA
Response: F

Prompt: Entry GGCCGGCAUGGUCCCAGCCUCCUCGCUGGCGCCGGCUGGGCAACAUUCCGAGGGGACCGUCCCCUCGGUAAUGGCGCAUGGGCCCCA : is its self-cleavage no less than 0.4?
Response: F
